# system under test: OsWRKY34 (Oryza sativa, UniProt Q0JBA9 1-250)
# Sequence (Q0JBA9 entry or part of it): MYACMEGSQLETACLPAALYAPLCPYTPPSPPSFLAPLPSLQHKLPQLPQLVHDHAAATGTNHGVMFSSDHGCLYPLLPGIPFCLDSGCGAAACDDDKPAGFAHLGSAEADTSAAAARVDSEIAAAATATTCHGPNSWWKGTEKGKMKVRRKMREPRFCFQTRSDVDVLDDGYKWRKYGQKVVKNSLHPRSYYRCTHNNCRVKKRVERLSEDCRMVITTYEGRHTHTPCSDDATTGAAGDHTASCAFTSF
# assay text: protein-binding microarray (RPBM); PBS, 2% BSA, 51.3 ng/ul salmon testes DNA, 50 uM zinc acetate, 200 nM TF, 25 C, 1 h; high values mean tight binding
# reported conditions: protein: recombinant; tags: N-terminal polyhistidine and DsRed monomer fusion (pET32a); label: CyDye5-dUTP incorporated in the synthesized complementary strand; 3' TTTTT single-stranded linker to array surface; dsDNA, one strand shown
Over roughly 68,000 sequences, “fluorescence intensity (a.u.)” has its median near 9,100; the highest 2% begin near 16,000. The sample holds the highest values, similar sequences and a random draw of the others, so the mix is not that of the screen.
# binding signal listing for each entry below
test readout: binding signal

TTGGCTCGAGGCGGGGCTGGTTGGTTGGTTGGTTTGGTGGCGGAGTCACCTAGTGCAG 14600 fluorescence intensity (a.u.)
TGATTTTTTAGGGAGGGGTGGTTAGTATAAGAGGGTTTTCCGGAGTCACCTAGTGCAG 20000 fluorescence intensity (a.u.)
AGATGGTGTTTGGATGGGAGGGATTTATTTTAGTCCCTCTCGGAGTCACCTAGTGCAG 10200 fluorescence intensity (a.u.)
GTGGGTGGAGGAAGCGGATAGGGAGAGGGGTGTGGGGCGGCGGAGTCACCTAGTGCAG 16000 fluorescence intensity (a.u.)
TAGCACTAAAACGAGAGGCCTTTTGATTTAGATTTTGCCACGGAGTCACCTAGTGCAG 21900 fluorescence intensity (a.u.)
ATGCCCTGTTACCTGTGTGTGATTTCTTTGTGCTCCATAACGGAGTCACCTAGTGCAG 17600 fluorescence intensity (a.u.)
GTTAGGCATGCTGCTTGTTTATTTTTTTTCAAGTTGAGAACGGAGTCACCTAGTGCAG 8140 fluorescence intensity (a.u.)
ATCCAATGGTATAATTTTTTTAGGGAAGGGTTTTTTTTTCCGGAGTCACCTAGTGCAG 12600 fluorescence intensity (a.u.)
GATTTGGTGGGTTATAATTTTATAGTAAGAGGGGATTTTACGGAGTCACCTAGTGCAG 16100 fluorescence intensity (a.u.)
GGGAGGGAGCCAGAGCGGCGGGCGTGGGGTTGGAGGAGGGCGGAGTCACCTAGTGCAG 9900 fluorescence intensity (a.u.)
ACGCGCGGCCTAGTTGTGTGTGGGTGTGTGAGGTGAGGGGCGGAGTCACCTAGTGCAG 11000 fluorescence intensity (a.u.)
GAGTAGAGGTGGGAGGAAGCGGTGGTGTGGTGGGGTGGGGCGGAGTCACCTAGTGCAG 22100 fluorescence intensity (a.u.)
AGCACATAGCTAGTTAGCCACATATTATTTGATCACTAAACGGAGTCACCTAGTGCAG 8980 fluorescence intensity (a.u.)

====

# system under test: OsWRKY34 (Oryza sativa, UniProt Q0JBA9 1-250)
# assay text: protein-binding microarray (RPBM); PBS, 2% BSA, 51.3 ng/ul salmon testes DNA, 50 uM zinc acetate, 200 nM TF, 25 C, 1 h; high values mean tight binding
# reported conditions: protein: recombinant; tags: N-terminal polyhistidine and DsRed monomer fusion (pET32a); label: CyDye5-dUTP incorporated in the synthesized complementary strand; 3' TTTTT single-stranded linker to array surface; dsDNA, one strand shown
Whole data set: some 68,000 sequences, median “fluorescence intensity (a.u.)” near 9,100, cut for the highest 2% near 16,000. Shown is part of a subset that was picked to be rich in the highest values.
Each entry below carries its recorded binding signal.
test readout: binding signal

AACCCGTTCACACACATTGTCAGGGACCAGCTCATTACTTCGGAGTCACCTAGTGCAG 10400 fluorescence intensity (a.u.)
CGCGCGCGCGCGCGTACGTGGGAACAGAGAGCGGCGCCGACGGAGTCACCTAGTGCAG 27900 fluorescence intensity (a.u.)
GCAGCATCACCCGCAGCCGCCGCCGCCGCCGCCATGGACTCGGAGTCACCTAGTGCAG 10100 fluorescence intensity (a.u.)
CTCTATACCATACGCCATCTCCATCATCTCTCGATCCATCCGGAGTCACCTAGTGCAG 11300 fluorescence intensity (a.u.)
ATGCTGAATTGGGTTGGGCTGGGGAGGAATTATAGACTATCGGAGTCACCTAGTGCAG 17500 fluorescence intensity (a.u.)
ATCGGCGCCGTCGACCGCGACCACCCTGCCGCCGAGCGCCCGGAGTCACCTAGTGCAG 10300 fluorescence intensity (a.u.)

====

# system under test: OsWRKY34 (Oryza sativa, UniProt Q0JBA9 1-250)
# assay text: protein-binding microarray (RPBM); PBS, 2% BSA, 51.3 ng/ul salmon testes DNA, 50 uM zinc acetate, 200 nM TF, 25 C, 1 h; high values mean tight binding
# reported conditions: protein: recombinant; tags: N-terminal polyhistidine and DsRed monomer fusion (pET32a); label: CyDye5-dUTP incorporated in the synthesized complementary strand; 3' TTTTT single-stranded linker to array surface; dsDNA, one strand shown
The full ranking holds about 68,000 sequences; the median of “fluorescence intensity (a.u.)” is about 9,100, and the highest 2% start at about 16,000. For the sample, the highest values were picked, then their nearest neighbours and some sequences at random.
test readout: binding signal

TAGCTACCTAAGCTTAGCTCACATTCTTCTCGCTTTCTCACGGAGTCACCTAGTGCAG 12000 fluorescence intensity (a.u.)
TCGGTCGGGTCGGGTCGGGTCGCGTCGCGTGGGCTGCATGCGGAGTCACCTAGTGCAG 12200 fluorescence intensity (a.u.)
TAATTCATGGTTGGTTTTTAATTATATTTCCCTCCTTAAACGGAGTCACCTAGTGCAG 9580 fluorescence intensity (a.u.)
GTGGGTGGGATCCAGGAAGATTTTAAGCTGACTGCTGCGGCGGAGTCACCTAGTGCAG 8510 fluorescence intensity (a.u.)
GGTTTTCCCTGGATGCCGAGAGGGTTTGGGTGCGCGCCGCCGGAGTCACCTAGTGCAG 8910 fluorescence intensity (a.u.)
CTTATCCACCATCAATGTTCCTGACTTCAATTTTTCGTTGCGGAGTCACCTAGTGCAG 10500 fluorescence intensity (a.u.)
ACAGAACGAACCACCTATACGTACGTTTTCTCTCTTTTGACGGAGTCACCTAGTGCAG 8040 fluorescence intensity (a.u.)
ACTGCTTTGTTCTATTTGATTATTTTTTTACTCATCAGATCGGAGTCACCTAGTGCAG 15900 fluorescence intensity (a.u.)

====

# system under test: OsWRKY34 (Oryza sativa, UniProt Q0JBA9 1-250)
# assay text: protein-binding microarray (RPBM); PBS, 2% BSA, 51.3 ng/ul salmon testes DNA, 50 uM zinc acetate, 200 nM TF, 25 C, 1 h; high values mean tight binding
# reported conditions: protein: recombinant; tags: N-terminal polyhistidine and DsRed monomer fusion (pET32a); label: CyDye5-dUTP incorporated in the synthesized complementary strand; 3' TTTTT single-stranded linker to array surface; dsDNA, one strand shown
Whole data set: some 68,000 sequences, median “fluorescence intensity (a.u.)” near 9,100, cut for the highest 2% near 16,000. The sample as a whole holds a higher share of the highest values than the screen did.
test readout: binding signal

TCATGGATTATCTCTTTAATGTATAACGCCGTTGACTTTTCGGAGTCACCTAGTGCAG 14300 fluorescence intensity (a.u.)
GCTCCTCGTCGCCACCGATCCCCGCCGCCGGCTTGCCTCACGGAGTCACCTAGTGCAG 9340 fluorescence intensity (a.u.)
ACAGCTCTGCTCAACCTTGCCATCTCGATCAATCGATCCTCGGAGTCACCTAGTGCAG 11400 fluorescence intensity (a.u.)
ATGTTTTTTTTTGGGTCGCTTTCTTTGTGTGTGTATATATCGGAGTCACCTAGTGCAG 16400 fluorescence intensity (a.u.)
TTTTCTTTCTTTTTCTTTTTTTTTATCGTTTTGTTCTTCTCGGAGTCACCTAGTGCAG 10500 fluorescence intensity (a.u.)
CCGTTTCATATTTAAATTGTTTTGACTTTTTTATAGTTAACGGAGTCACCTAGTGCAG 8140 fluorescence intensity (a.u.)
AGTTTCGAAATATTTGACGCCGTTGACTTTTTATCAAATGCGGAGTCACCTAGTGCAG 28300 fluorescence intensity (a.u.)
TTGTGGGAGGAGGGGATGGAATGATGATGACTCTGTTTTTCGGAGTCACCTAGTGCAG 8200 fluorescence intensity (a.u.)
GTGTGTTGTTGTTCTTGTTTTGGTTCTTTTCTAGTAGTATCGGAGTCACCTAGTGCAG 8750 fluorescence intensity (a.u.)
AAGCGCCTGGTAGCGGAGAGTGGGAAAGAGCTGGCTGGCGCGGAGTCACCTAGTGCAG 60400 fluorescence intensity (a.u.)
ATGTTTTAATTTTGGGCTTCTTTTTGTTTTGGGCTTTTATCGGAGTCACCTAGTGCAG 24300 fluorescence intensity (a.u.)
ACTCACAGAAAGCGTCGGGGCGGGTCTGGGAGGGCTTGCGCGGAGTCACCTAGTGCAG 9140 fluorescence intensity (a.u.)
TCGGGGCGGGTCTGGGAGGGCTTGCGCTTGACACGGACGACGGAGTCACCTAGTGCAG 17200 fluorescence intensity (a.u.)
CTGCTGCCGCCGCCTCCTGGCCGCCGCCGCGGCGAGCGCGCGGAGTCACCTAGTGCAG 8280 fluorescence intensity (a.u.)
GTTACCGAAGTTTTACTTTATACCATATGTACTCTATCTACGGAGTCACCTAGTGCAG 8060 fluorescence intensity (a.u.)
GTTTCATAATCCTGTGTTCTTTTTGTTTACTATGGTTTTGCGGAGTCACCTAGTGCAG 11000 fluorescence intensity (a.u.)
TCATTTTGTATTTTGTTGTCTCTGTCTTGCTGTTCCCTCGCGGAGTCACCTAGTGCAG 8810 fluorescence intensity (a.u.)
ATAACCAACATATTTAGCCTACAATTAAATATTTACTATACGGAGTCACCTAGTGCAG 8390 fluorescence intensity (a.u.)
ACTACTTCCTCTGTTTCTAAATATTTGACGACGTTGATTTCGGAGTCACCTAGTGCAG 8050 fluorescence intensity (a.u.)
ATCATATGAACACGTTATCTTTTTATTTTATACCGGTTCACGGAGTCACCTAGTGCAG 8840 fluorescence intensity (a.u.)
GGAGTATATAAATATATATATTAAATACAACTCTAGACTACGGAGTCACCTAGTGCAG 26700 fluorescence intensity (a.u.)
CACCGTTGATTTTTTTAAATATGTTTGACCGTTCGTTTTACGGAGTCACCTAGTGCAG 12000 fluorescence intensity (a.u.)
ATTTTTATACGGACTCTAAACTCTACTTTTAATTTTATTACGGAGTCACCTAGTGCAG 8490 fluorescence intensity (a.u.)
TTCATATACACATATAGTTTTACATATTTCATATTTTTTTCGGAGTCACCTAGTGCAG 9360 fluorescence intensity (a.u.)
GCTTCAAACTCGAGCTTCTACCAGTACCAGCTACCAGGTGCGGAGTCACCTAGTGCAG 8190 fluorescence intensity (a.u.)
GTTGACTTTTTTTAAAATATGTTTGACCGTTCATATTATTCGGAGTCACCTAGTGCAG 8770 fluorescence intensity (a.u.)
ATTTTTTATTTCTTTTGTTTCAAATTTCAGTTCTTTTTATCGGAGTCACCTAGTGCAG 9720 fluorescence intensity (a.u.)
TTCGAAATGTTTGACGCCGTTGACTTTTTAGCATATGTTTCGGAGTCACCTAGTGCAG 13200 fluorescence intensity (a.u.)
GCCCCGAGCGGGCCGAGCTCCCATCGTCTCATCGCCCCAACGGAGTCACCTAGTGCAG 11600 fluorescence intensity (a.u.)
TTTTTCTCGTTTGCCGTGTCACCGCGTGAGTTGCGCGGGGCGGAGTCACCTAGTGCAG 11700 fluorescence intensity (a.u.)
ATCGACCTCCATTTTAACGTACGACTCCCTAAGAGACCCGCGGAGTCACCTAGTGCAG 9660 fluorescence intensity (a.u.)
TTCGTTTGACTTTTGCCGTTTCAAATTTGAATTCTCGAAACGGAGTCACCTAGTGCAG 9080 fluorescence intensity (a.u.)
GTGTGTGCTGTGGTGGAGAGGAGAAAGGGAGGAAGAAGAGCGGAGTCACCTAGTGCAG 8140 fluorescence intensity (a.u.)
CGTTGACTTTTTTAAATATGTTTGACCGTTTATGTTATTTCGGAGTCACCTAGTGCAG 44100 fluorescence intensity (a.u.)
TCTCGTTTCGTTCGTGTATCATGTTTTTTTTTGGGTCGCTCGGAGTCACCTAGTGCAG 8730 fluorescence intensity (a.u.)
ACAGGGCTTGGAATAGGTTGGTGTACAGGGCGGTAGCTTACGGAGTCACCTAGTGCAG 8670 fluorescence intensity (a.u.)
